assay: P-glycoprotein substrates identified in KB-3-1 adenocarcinoma cell line, qHTS therapeutic library screen (AID 1346986); details: KB-3-1 parental cells viability, CellTiter-Glo, 72 h; series mostly up to 44.5 µM; further: nearly all actives have a fitted effect of over 60% in size
Records with an inconclusive call do not appear. Active and inactive are the calls of the source. The call rests on the fitted dose curve; in most records, active means well fitted inhibition curve with a large enough effect; inconclusive means small, poorly fitted or top-dose-only effect; inactive means no such curve, though single readings can be large or run the other way.

>  <compound>
CC1(C)CC[C@]23CO[C@@]4(CCC5[C@@]6(C)CC[C@H](O[C@@H]7OC[C@H](O[C@@H]8O[C@H](CO)[C@@H](O)[C@H](O)[C@H]8O[C@@H]8OC[C@@H](O)[C@H](O)[C@H]8O)[C@H](O)[C@H]7O)[C@@](C)(CO)C6CC[C@@]5(C)[C@]4(C)CC2=O)[C@@H]3C1 (stereo partly specified)

>  <outcome>
inactive [at 9.29 µM]

$$$$
>  <compound>
CC1(C)CCC2(C(=O)OC3OC(COC4OC(CO)C(O)C(O)C4O)C(O)C(O)C3O)CCC3(C)C(=CCC4C5(C)CCC(OC6OCC(O)C(O)C6O)C(C)(C)C5CCC43C)C2C1O (stereo unspecified)

>  <outcome>
inactive [at 9.29 µM]

$$$$
>  <compound>
CC1(C)CC[C@]2(C(=O)O)[C@H](O)C[C@]3(C)C(=CCC4[C@@]5(C)CC[C@H](O[C@@H]6O[C@H](CO[C@@H]7OC[C@H](O)[C@H](O)[C@H]7O[C@@H]7OC[C@H](O)[C@H](O)[C@H]7O)[C@@H](O)[C@H](O)[C@H]6O)C(C)(C)C5CC[C@]43C)[C@@H]2C1 (stereo partly specified)

>  <outcome>
inactive [at 9.29 µM]

$$$$
>  <compound>
CC(CCC1(O)OC2CC3C4CC=C5C[C@@H](O[C@@H]6O[C@H](CO)[C@@H](O[C@@H]7O[C@@H](C)[C@H](O)[C@@H](O)[C@H]7O)[C@H](O)[C@H]6O[C@@H]6O[C@@H](C)[C@H](O)[C@@H](O)[C@H]6O)CC[C@]5(C)C4CC[C@]3(C)[C@@]2(O)[C@@H]1C)CO[C@@H]1O[C@H](CO)[C@@H](O)[C@H](O)[C@H]1O (stereo partly specified)

>  <outcome>
inactive [at 9.29 µM]

$$$$
>  <compound>
C[C@@H]1O[C@@H](O[C@H]2CC[C@@]3(C)C(CC[C@]4(C)C3CC=C3[C@@H]5CC(C)(C)CC[C@]5(C(=O)O[C@@H]5O[C@H](CO)[C@@H](O)[C@H](O)[C@H]5O)CC[C@]34C)[C@]2(C)CO)[C@H](O)[C@H](O[C@@H]2O[C@H](CO)[C@@H](O)[C@H](O)[C@H]2O)[C@H]1O (stereo partly specified)

>  <outcome>
inactive [at 9.29 µM]

$$$$
>  <compound>
COc1c(C)cc(NC(=O)c2nn(Cc3ccc(F)cc3)c3c2CN(C(=O)c2ccc[nH]2)C[C@]3(C)C(N)=O)cc1C

>  <outcome>
inactive [at 9.29 µM]

$$$$
